Listed compounds paired with reported Cell Cycle (%) S
System: MCF-7 cells
testSummary: Cell cycle distribution by flow cytometry
Assay type: cell-based, human
conditions: 0.1 nM, 24 h
endpointLabel: Cell Cycle (%) S

compound | observedResult
O=C(c1ccc(OCCN2CCCCC2)cc1)c1c(-c2ccc(O)cc2)sc2cc(O)ccc12 [Ral., Raloxifene, reference compound] | 15.83 ± 0.53 *^,†,‡ %
CC(=O)c1cc(C(=O)O[C@@H]2/C=C/C(=O)O[C@@H](O)CCC/C=C/[C@@H]3C[C@H](O)C[C@H]32)ccc1OCCN1C=Cc2ccccc2C1 | 14.06 ± 1.58 *^,†,‡,§ %
CC(=O)c1cc(C(=O)O[C@@H]2/C=C/C(=O)O[C@@H](O)CCC/C=C/[C@@H]3C[C@H](O)C[C@H]32)ccc1OCCN1CCCC1 | 13.31 ± 1.66 *^,†,‡,§ %
CC(=O)c1cc(C(=O)O[C@@H]2/C=C/C(=O)O[C@@H](O)CCC/C=C/[C@@H]3C[C@H](O)C[C@H]32)ccc1OCCS(=O)(=O)O | 7.20 ± 2.88 *^,†,‡,§ %
CC(=O)c1cc(C(=O)O[C@@H]2/C=C/C(=O)O[C@@H](O)CCC/C=C/[C@@H]3C[C@H](O)C[C@H]32)ccc1OCCN1CC(C(=O)O)=CCC1=O | 12.97 ± 1.65 *^,†,‡,§ %
CNCCOc1ccc(C(=O)O[C@@H]2/C=C/C(=O)O[C@@H](O)CCC/C=C/[C@@H]3C[C@H](O)C[C@H]32)cc1C(C)=O | 9.98 ± 1.65 *^,†,‡,§ %

---

Tested on: MCF-7 cells
testSummary: Cell cycle distribution by flow cytometry
Type: cell-based, human
conditions: 1 nM, 24 h

compound | Cell Cycle (%) S
CC(=O)c1cc(C(=O)O[C@@H]2/C=C/C(=O)O[C@@H](O)CCC/C=C/[C@@H]3C[C@H](O)C[C@H]32)ccc1OCCS(=O)(=O)O | 7.91 ± 0.1.54 *^,†,‡,§ %
CC(=O)c1cc(C(=O)OC2/C=C/C(=O)O[C@@H](O)CCC/C=C/[C@@H]3C[C@H](O)C[C@@H]23)ccc1OCCN1CCC=C(C(=O)O)C1 (stereo partly drawn) | 9.69 ± 0.94 *^,†,‡,§ %
CC(=O)c1cc(C(=O)O[C@@H]2/C=C/C(=O)O[C@@H](O)CCC/C=C/[C@@H]3C[C@H](O)C[C@H]32)ccc1OCCN1CCCCC1 | 12.67 ± 2.46 *^,†,‡,§ %
CC(=O)c1cc(C(=O)O[C@@H]2/C=C/C(=O)O[C@@H](O)CCC/C=C/[C@@H]3C[C@H](O)C[C@H]32)ccc1OCCN1C=Cc2ccccc2C1 | 14.77 ± 1.46 *^,†,‡,§ %
CC(=O)c1cc(C(=O)O[C@@H]2/C=C/C(=O)O[C@@H](O)CCC/C=C/[C@@H]3C[C@H](O)C[C@H]32)ccc1OCCN1CCCC(O)C1=O (stereo partly drawn) | 17.67 ± 1.32 *^,†,‡,§ %
CC/C(=C(\c1ccc(O)cc1)c1ccc(OCCN(C)C)cc1)c1ccccc1 [Compound 4-OHT., 4-hydroxytamoxifen, reference compound] | 21.14 ± 0.25 *^,†,§ %

---

Listed molecules paired with reported CAT
testSummary: Liver oxidative stress markers after treatment of MNU-induced rats
Assay type: in vivo, Wistar rats
conditions: catalase activity, liver, dose 50 mg/kg

molecule | CAT
CC(=O)c1cc(C(=O)O[C@@H]2/C=C/C(=O)O[C@@H](O)CCC/C=C/[C@@H]3C[C@H](O)C[C@H]32)ccc1OCCS(=O)(=O)O | 16.43
CC(=O)c1cc(C(=O)O[C@@H]2/C=C/C(=O)O[C@@H](O)CCC/C=C/[C@@H]3C[C@H](O)C[C@H]32)ccc1OCCN(C)C | 17.31
CC(=O)c1cc(C(=O)O[C@@H]2/C=C/C(=O)O[C@@H](O)CCC/C=C/[C@@H]3C[C@H](O)C[C@H]32)ccc1OCCN1CC(C(=O)O)=CCC1=O | 13.32
CC(=O)c1cc(C(=O)OC2/C=C/C(=O)O[C@@H](O)CCC/C=C/[C@@H]3C[C@H](O)C[C@@H]23)ccc1OCCN1CCC=C(C(=O)O)C1 (some centres unmarked) | 18.32
CNCCOc1ccc(C(=O)O[C@@H]2/C=C/C(=O)O[C@@H](O)CCC/C=C/[C@@H]3C[C@H](O)C[C@H]32)cc1C(C)=O | 17.35

---

testSummary: Pharmacokinetics study, oral bioavailability
conditions: rat, oral 5 mg/kg
Listed compounds paired with reported BIO

compound | BIO
CC(=O)c1cc(C(=O)OC2/C=C/C(=O)O[C@@H](O)CCC/C=C/[C@@H]3C[C@H](O)C[C@@H]23)ccc1OCCN1CCC=C(C(=O)O)C1 (stereo partly shown) | 90
CNCCOc1ccc(C(=O)O[C@@H]2/C=C/C(=O)O[C@@H](O)CCC/C=C/[C@@H]3C[C@H](O)C[C@H]32)cc1C(C)=O | 91
CC(=O)c1cc(C(=O)O[C@@H]2/C=C/C(=O)O[C@@H](O)CCC/C=C/[C@@H]3C[C@H](O)C[C@H]32)ccc1OCCS(=O)(=O)O | 90
CC(=O)c1cc(C(=O)O[C@@H]2/C=C/C(=O)O[C@@H](O)CCC/C=C/[C@@H]3C[C@H](O)C[C@H]32)ccc1OCCN(C)C | 92

---

targetSystem: UniProt P03372
Sequence (P03372 1-595): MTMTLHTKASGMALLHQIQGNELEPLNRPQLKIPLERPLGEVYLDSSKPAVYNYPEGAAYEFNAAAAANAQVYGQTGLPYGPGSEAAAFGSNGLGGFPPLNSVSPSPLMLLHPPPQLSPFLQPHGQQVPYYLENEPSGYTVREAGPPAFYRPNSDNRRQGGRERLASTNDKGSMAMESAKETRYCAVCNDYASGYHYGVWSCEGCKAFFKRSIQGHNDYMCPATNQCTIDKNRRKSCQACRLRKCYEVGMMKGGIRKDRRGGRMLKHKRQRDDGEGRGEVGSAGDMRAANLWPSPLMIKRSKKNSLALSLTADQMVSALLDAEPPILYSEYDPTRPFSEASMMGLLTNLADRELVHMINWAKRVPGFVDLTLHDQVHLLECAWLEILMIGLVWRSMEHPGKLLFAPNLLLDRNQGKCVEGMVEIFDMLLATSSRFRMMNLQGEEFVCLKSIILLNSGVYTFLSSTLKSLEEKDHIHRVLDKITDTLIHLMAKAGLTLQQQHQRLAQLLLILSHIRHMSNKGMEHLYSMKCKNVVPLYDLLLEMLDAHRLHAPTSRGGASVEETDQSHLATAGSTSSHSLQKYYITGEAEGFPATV
testSummary: ERα down-regulation immunofluorescence assay in MCF-7
Format: cell-based
Listed molecules paired with reported IC50

molecule | targetSystem | IC50
CC(=O)c1cc(C(=O)O[C@@H]2/C=C/C(=O)O[C@@H](O)CCC/C=C/[C@@H]3C[C@H](O)C[C@H]32)ccc1OCCN1Cc2cccnc2C1 [Compound 3DPQ-6] | UniProt P03372 | > 100 nM
CC(=O)c1cc(C(=O)O[C@@H]2/C=C/C(=O)O[C@@H](O)CCC/C=C/[C@@H]3C[C@H](O)C[C@H]32)ccc1OCCN1CCCCC1 [Compound 3DPQ-10] | UniProt P03372 | > 100 nM
CC(=O)c1cc(C(=O)O[C@@H]2/C=C/C(=O)O[C@@H](O)CCC/C=C/[C@@H]3C[C@H](O)C[C@H]32)ccc1OCCN1CCCC1 [Compound 3DPQ-11] | UniProt P03372 | > 100 nM

---

targetSystem: ERβ (Homo sapiens)
Sequence (Q92731 whole entry): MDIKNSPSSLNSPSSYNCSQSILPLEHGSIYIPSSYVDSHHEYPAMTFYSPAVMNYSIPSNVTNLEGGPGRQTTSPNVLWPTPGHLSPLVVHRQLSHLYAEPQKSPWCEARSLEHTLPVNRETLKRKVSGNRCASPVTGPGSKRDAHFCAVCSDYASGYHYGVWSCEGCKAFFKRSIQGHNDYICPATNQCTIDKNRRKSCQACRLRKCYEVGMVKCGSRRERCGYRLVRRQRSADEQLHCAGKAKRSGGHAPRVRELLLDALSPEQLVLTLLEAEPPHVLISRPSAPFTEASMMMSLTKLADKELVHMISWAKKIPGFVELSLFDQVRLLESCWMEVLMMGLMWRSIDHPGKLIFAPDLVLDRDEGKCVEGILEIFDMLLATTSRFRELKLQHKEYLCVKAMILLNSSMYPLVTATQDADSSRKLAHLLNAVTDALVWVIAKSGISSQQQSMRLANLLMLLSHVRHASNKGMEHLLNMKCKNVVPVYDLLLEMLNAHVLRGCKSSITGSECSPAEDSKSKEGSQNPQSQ
testSummary: Fluorescence polarization competition assay: antagonistic potency and relative binding affinity
Listed compounds paired with reported Ki

smilesRecord | targetSystem | Ki [nM]
CC(=O)c1cc(C(=O)O[C@@H]2/C=C/C(=O)O[C@@H](O)CCC/C=C/[C@@H]3C[C@H](O)C[C@H]32)ccc1OCCN1Cc2cccnc2C1 | ERβ (Homo sapiens) | 48.6
CC(=O)c1cc(C(=O)O[C@@H]2/C=C/C(=O)O[C@@H](O)CCC/C=C/[C@@H]3C[C@H](O)C[C@H]32)ccc1OCCN1CCCCC1 | ERβ (Homo sapiens) | 44.7
CC(=O)c1cc(C(=O)O[C@@H]2/C=C/C(=O)O[C@@H](O)CCC/C=C/[C@@H]3C[C@H](O)C[C@H]32)ccc1OCCN1CCCC1 | ERβ (Homo sapiens) | 43

---

Listed compounds paired with reported pIC50
targetSystem: ERα (Homo sapiens)
testSummary: Fluorescence polarization competition assay: antagonistic potency and relative binding affinity
conditions: virtually screened NCI hits, Table S17; read-out: ERα (IC50)
pIC50: −log10 of the molar value.

smilesRecord | pIC50
COc1ccc(C(C#N)=C(c2ccccc2)c2ccccc2)cc1 | 4.75
O=C(O)c1ccccc1-n1c2ccccc2c2ccccc21 | 4.17
O=C(c1ccccc1)c1ccccc1C(=O)c1ccccc1 | 4.12
c1ccc(-n2c3ccccc3c3ccccc32)cc1 | 4.13

Reference source for all entries: paper PMC9101642
